Just for reference, patent US4232121A is where these values come from.

The entries below come with measured zone of inhibition at 1000 µM values attached.
tested on: Bacillus pumilus strain K-1; test: Inhibition of bacterial growth, filter paper on inoculated agar plates; assay type: cell-based; settings: Bacillus pumilus, K1, 48 h, Table VIII; 10^-3 molar; Nutrient; 37° C./48 hrs; read-out: Area of Inhibition (diameter)
Readout Name: zone of inhibition at 1000 µM (mm)

1. CCN1C(=CC=Cc2sc3ccccc3[n+]2CC)Sc2ccccc21    17
2. CCN1C(=Cc2oc3ccccc3[n+]2CC)Oc2ccccc21    18
3. CCN1C(=CC=CC=Cc2oc3ccccc3[n+]2CC)Oc2ccccc21    21
4. CCN1C(=CC=Cc2oc3ccccc3[n+]2CC)Oc2ccccc21    24
5. CCN1C(=CC=Cc2n(CC)c3nc4ccccc4nc3[n+]2CC)N(CC)c2nc3ccccc3nc21    13

====

assay: Oxidation potential (Eox) of the dye; format: physicochemical; settings: Tables I, II, V, VI
Readout Name: Eox

1. CCN1C(=CN=Nc2sc3ccccc3[n+]2CC)Sc2ccccc21 [Dye 26]    > +1.00
2. CCN1C(=CC=Cc2n(CC)c3nc4ccccc4nc3[n+]2CC)N(CC)c2nc3ccccc3nc21 [Dye 24]    +1.00
3. Cn1c(-c2ccccc2)c(C=Cc2sc3cc([N+](=O)[O-])c(Cl)cc3[n+]2C)c2ccccc21 [Dye 31]    > +1.00
4. CCN1C(=CC=Cc2oc3ccc(C)cc3[n+]2CC)Oc2ccc(C)cc21 [7,5,5'-dimethyl]    +.96
5. CC[n+]1c(C=Cc2c(-c3cccnc3)n(C)c3ccccc23)sc2cc([N+](=O)[O-])ccc21 [Dye 32]    > +1.00
6. CCN1C(=CC=Cc2oc3cc(OC)ccc3[n+]2CC)Oc2cc(OC)ccc21 [7,6,6'-dimethoxy]    +.84
7. CCN1C(=CC=Cc2sc3cc4ccccc4nc3[n+]2CC)Sc2cc3ccccc3nc21 [Dye 27]    > +1.00
8. CCN1C(=CC=Cc2sc3ccc(Cl)cc3[n+]2CC)Sc2ccc(Cl)cc21 [17,5,5'-dichloro]    +.85
9. Cn1c(-c2ccccc2)c(C=CC=C2C(c3ccccc3)=[N+](C)c3ccccc32)c2ccccc21 [Dye 33]    > +1.00
10. CCN1C(=CC=Cc2sc3cc([N+](=O)[O-])ccc3[n+]2CC)Sc2cc([N+](=O)[O-])ccc21 [17,6,6'-dinitro]    +.96
11. CCN1C(=CC=Cc2oc3cc(Cl)ccc3[n+]2CC)Oc2cc(Cl)ccc21 [7,6,6'-dichloro]    +1.07
12. CCN1C(=CC=Cc2oc3cc(S(=O)(=O)[O-])ccc3[n+]2CC)Oc2cc(S(=O)(=O)O)ccc21 [7,6,6'-disulfo]    +1.00

====

conditions: not told
Readout Name: reduction potential (ER) (volts)

1. CCN1C(=CC=Cc2oc3ccc(C)cc3[n+]2CC)Oc2ccc(C)cc21 [Dye 5]    -1.28
2. CCN1C(=Cc2oc3ccccc3[n+]2CC)Oc2ccccc21 [Dye 1]    -1.69
3. CCN1C(=CC=Cc2oc3ccccc3[n+]2CC)Oc2ccccc21 [Dye 7]    -1.26
4. CCN1C(=Cc2ccc3ccccc3[n+]2CC)C=Cc2ccccc21 [Dye 16]    -1.03

====

test system: Bacillus pumilus (K-1)
Each item that follows carries a reported % Bound.
Readout Name: % Bound

1. CCN1C(=Cc2ccc3ccccc3[n+]2CC)C=Cc2ccccc21 [Dye 16]    28.7%
2. CCN1C(=CC=Cc2oc3cc(OC)ccc3[n+]2CC)Oc2cc(OC)ccc21 [Dye 4]    97.2%
3. CCN1C(=Cc2oc3ccccc3[n+]2CC)Oc2ccccc21 [Dye 1]    33.6%
4. CCN1C(=CC=Cc2sc3cc4ccccc4cc3[n+]2CC)Sc2cc3ccccc3cc21 [Dye 19]    100%
5. CCN1C(=CC=Cc2sc3ccccc3[n+]2CC)Sc2ccccc21 [Dye 17]    73.1%
6. CCN1C(=CC=CC=Cc2sc3ccccc3[n+]2CC)Sc2ccccc21 [Dye 22]    98.4%
7. CCN1C(=CC(C)=Cc2sc3ccccc3[n+]2CC)Sc2ccccc21 [Dye 11]    98.9%
8. CCN1C(=CC=Cc2oc3ccc(C)cc3[n+]2CC)Oc2ccc(C)cc21 [Dye 5]    97.6%
9. CCN1C(=CC=Cc2oc3cc(Cl)ccc3[n+]2CC)Oc2cc(Cl)ccc21 [Dye 9]    95.1%
10. CCN1C(=CC=Cc2oc3ccccc3[n+]2CC)Oc2ccccc21 [Dye 7]    31.7%
11. CCN1C(=Cc2sc3ccc4ccccc4c3[n+]2CC)Sc2ccc3ccccc3c21 [Dye 2]    31.8%
12. CCC(=Cc1sc2ccc(Cl)cc2[n+]1CC)C=C1Sc2ccc(Cl)cc2N1CC [Dye 15]    74.9%
